# maps each entry to its self-cleavage
B1: HDV Ribozyme (parent)
chain: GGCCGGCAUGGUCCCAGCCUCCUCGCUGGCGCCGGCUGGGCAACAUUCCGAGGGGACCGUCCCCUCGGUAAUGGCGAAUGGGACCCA

- Variants of: B1
- Assay Comment: self-cleavage, relative activity (ratio to wild type); higher = more cleavage; co-transcriptional
Answer with a number only.

Some entries whose results are on file:
# Item Sequence, Recorded Result
records = [
    ("GGCCGGCAUGGUCCCAGCCCCCUCGCUGGCGCCGGCUGGGCAACAUUCCGAGGGGACCGUCCCCUCGGUAAUGGCAAAUGGGACCCA [U20C G76A]", 0.198),
    ("GGCCGGCAUGGUCCCAGCCUCCUCGCUGGCGCCCGCUGGGCAACAUUCCGAGGGGACCGUCCCCUCGUUAAUGGCGAAUGGGACCCA [G34C G68U]", 0.199),
    ("GGCCGGCAUGGUCCUAGCCUCCUCGCUGGCGCCGGCUGGGCAACAUUCCGAGAGGACCGUCCCCUCGGUAAUGGCGAAUGGGACCCA [C15U G53A]", 0.912),
    ("GGCCGGCAUGGUCCCAGCCUCCUCGCUGGCGCCGGCUGGGCAACAUACCGAGGGGACCGUCCCCUCCGUAAUGGCGAAUGGGACCCA [U47A G67C]", 1.12),
    ("GGCUGGCAUGGUCCCAGCCUCCUCGCUGGCGCCGGCUGGGCAACAUUCCGAGGGGACCGUCCCCUCGAUAAUGGCGAAUGGGACCCA [C4U G68A]", 0.604),
]

## Task Quick check: self-cleavage of GGCAGGCAUGGUCCCAGCCUCCUCGCUGGCGCCGGCUGGGCAACAUUCCGAGGGGACCGUCCCCUGGGUAAUGGCGAAUGGGACCCA [C4A C66G] ?
## Result 0.289

## Task Now consider GGCCGGCAUGGUCCCAGCCUCCUCGCUGGCGCCGGUUGGGCAACAUUCCGAGGGGACCGUCCCCUCGGCAAUGGCGAAUGGGACCCA [C36U U69C] and answer again.
## Result 0.801

## Task Here is the next variant: GGCCGGCAUGGGCUCAGCCUCCUCGCUGGCGCCGGCUGGGCAACAUUCCGAGGGGACCGUCCCCUCGGUAAUGGCGAAUGGGACCCA [U12G C14U]
## Result 1.2

## Task Same for GGCCGGCAUGGUCCCAGCCUCCUCGCUGGCGCGGGCUGAGCAACAUUCCGAGGGGACCGUCCCCUCGGUAAUGGCGAAUGGGACCCA [C33G G39A]
## Result 0.0997

## Task Okay, and GGCCGGCAUGGUCCCAGCCUCCUCGCUGGCGCCGGCUGGGCAACAUUCCGAGUGGACCGUCCCCUCGGUCAUGGCGAAUGGGACCCA [G53U A70C] ?
## Result 0.774
